For each record, write down the corresponding Inhibition at 1 μM MC1-R.
- target entity: MC1-R (B-16 mouse melanoma cells) (Mus musculus)
- Construct: B-16 mouse melanoma cells (containing MC1-R); endogenous in cells; host or cells: B-16 mouse melanoma cells
- Sequence (Q01727 whole entry): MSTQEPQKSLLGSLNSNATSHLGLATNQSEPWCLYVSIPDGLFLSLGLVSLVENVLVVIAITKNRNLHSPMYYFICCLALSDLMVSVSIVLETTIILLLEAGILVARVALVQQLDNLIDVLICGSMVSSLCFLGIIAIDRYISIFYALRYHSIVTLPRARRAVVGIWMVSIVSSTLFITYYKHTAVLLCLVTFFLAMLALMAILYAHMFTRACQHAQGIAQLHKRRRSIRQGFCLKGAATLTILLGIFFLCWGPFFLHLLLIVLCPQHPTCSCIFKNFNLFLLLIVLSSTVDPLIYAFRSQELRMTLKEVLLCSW
- test details: Competitive inhibition binding assay, 125I-NDP-α-MSH, MC1-R
- run parameters: 1 μM compound; inhibition of 125I-NDP-α-MSH binding; mean of triplicates; results less than 0% reported as 0%
Please don't drop the unit; write it after the number.

Name the reported Inhibition at 1 μM MC1-R value associated with the compound N=C(N)NCCC[C@H]1C(=O)N2C(CC[C@@H]2COc2ccc3ccccc3c2)N1C(=O)[C@@H](Cc1ccc(Cl)cc1Cl)NC(=O)[C@@H](N)COCc1ccccc1 (stereo partly drawn)
53%

Name the reported Inhibition at 1 μM MC1-R value associated with the compound NCCCC[C@H]1C(=O)N2C(CC[C@@H]2COc2ccc3ccccc3c2)N1C(=O)[C@@H](Cc1ccccc1Cl)NC(=O)[C@@H]1C[C@@H](OCc2ccccc2)CN1 (stereo partly drawn)
44%

Name the reported Inhibition at 1 μM MC1-R value associated with the compound NCCCNC(=O)[C@@H]1C[C@@H](OCc2ccccc2)CN1C(=O)[C@@H](Cc1ccccc1)NC(=O)[C@@H](N)Cc1cccc2ccccc12
0%

Name the reported Inhibition at 1 μM MC1-R value associated with the compound NCCCNC(=O)[C@@H]1C[C@@H](OCc2ccccc2)CN1C(=O)[C@@H](Cc1ccccc1)NC(=O)[C@H](Cc1cnc[nH]1)NC(=O)CC1CCCCC1
85%

Name the reported Inhibition at 1 μM MC1-R value associated with the compound NCCCC[C@H]1C(=O)N(CCc2ccc3ccccc3c2)CCN1C(=O)[C@H](N)Cc1ccc2ccccc2c1
26%

Name the reported Inhibition at 1 μM MC1-R value associated with the compound NCCCC[C@H]1C(=O)N2C(CC[C@@H]2COc2ccccc2)N1C(=O)[C@@H](Cc1ccc(Cl)cc1)NC(=O)[C@@H]1Cc2ccccc2CN1 (stereo partly drawn)
81%
